Reported TGI values are given for each entry in this list.
Test system: T-47D breast
test: NCI tumour cell line growth inhibition, 48 h
assay_readout: TGI

CC(=O)OCC1OC(n2c(C)c(C(C)=O)c(-c3cccc4ccccc34)c(C#N)c2=S)C(OC(C)=O)C(OC(C)=O)C1OC(C)=O (stereo not drawn): > 100 µM
COc1cc(/C=C2\CC3C4CC[C@H]5C[C@@H](O)CC[C@]5(C)C4CC[C@]3(C)C2=O)cc(OC)c1OC (stereo partly drawn): 34.8 µM
CC(C)C[C@@H]1NC(=O)[C@@H]2CCCN2C(=O)[C@@H]2CCCN2C(=O)[C@H](CC(C)C)NC(=O)[C@H](CO)NC(=O)[C@H](CCCCN)NC(=O)[C@H]([C@H](C)O)NC(=O)[C@@H]2CCCC[C@@H](NC1=O)C(=O)N[C@@H](Cc1ccccc1)C(=O)N1CCC[C@H]1C(=O)N[C@@H](CC(=O)O)C(=O)NCC(=O)N[C@@H](CCCN=C(N)N)C(=O)N2: > 50 µM
O=C1C(=O)c2ccccc2C(O)=C1CCCCCCCCC1CCCCC1: 21.5 µM
CC1=NN(C(=O)c2ccccc2O)C(c2ccccc2Cl)C1C(=O)Nc1ccccc1 (stereo not drawn): > 100 µM
O=C(N/N=C\c1ccc(N(CCCl)CCCl)cc1Cl)c1cccnc1: 20 µM
COC(=O)[C@@H](C)C[C@H](Cc1ccccc1)NC(=O)c1csc([C@@H](C[C@H](C(C)C)N(C)C(=O)C2(NC(=O)[C@H]3CCCCN3C)CC2)OC(C)=O)n1: > 33.3 µM
[O-]c1c[n+](CC[n+]2cc([O-])on2)no1: > 100 µM
N#C/C(=C\c1ccc(Br)cc1)c1nc(-c2cc3ccccc3oc2=O)cs1: > 50 µM
C/C(=N\NC(=S)NNC(=S)N(C)c1ccccc1)c1ccccn1: 72.8 µM
Cc1ccc(/C(O)=C/c2nc3ccccc3[nH]c2=O)c(C)c1: > 69.7 µM
CN(C)CCNC(=O)c1cc(-c2nccn2C)nc2ccccc12: > 100 µM
COc1ccc2c(c1)N=C1CSC(c3c(Cl)cccc3[N+](=O)[O-])N1C2 (stereo not drawn): > 100 µM
CC(=O)N1C2=CCCC2(C)c2ccccc21 (stereo not drawn): > 100 µM
CN1CCn2c(c(Sc3ccc(C(=O)NO)cc3)c3ccccc32)C1=O: 3.91 µM
Clc1ccc(-c2nnc(C34CC5CC(CC(C5)C3)C4)o2)cc1: > 100 µM
COc1ccc2c(c1)OC(N)=C(C#N)C2c1ccc(F)cc1 (stereo not drawn): > 100 µM
COCCNC(=O)c1ccc(-c2nc3ccc4[nH]ncc4c3c3c2CCCC3)cc1: 16.3 µM
